- System: PRKCI;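 note: KINOMEscan kinase panel screen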
- CONDITIONS: concentration: 1 μM, replicates: in singlicate; n = 1
ASSAY_METRIC: %Inh (%)
Please reply with the bare figure in % and do not write the unit itself.

Query: For the molecule Fc1cc(Cl)ccc1Nc1ccnc2cc(-c3ccc(CN4CCCCC4)o3)ccc12 , what %Inh is on record?
Result: 0

Query: For the molecule O=C(Nc1ccccc1)Nc1cccc(Oc2ccc3nccn3n2)c1 , what %Inh is on record?
Result: 21

Query: For the molecule COc1cc2ncn(-c3cc(OCC4CCCO4)c(C(N)=O)s3)c2cc1OC (stereo not drawn) , what %Inh is on record?
Result: 100

Continuing:
Query: For the molecule COC(=O)c1c(-c2ccccc2)c2cc(OC)ccc2c(=O)n1Cc1ccccc1 , what %Inh is on record?
Result: 0

Query: For the molecule O=C(Nc1ccc2c(c1)OCO2)NC1CCN(c2ccnc(Nc3ccc(F)cc3)n2)C1 (stereo not drawn) , what %Inh is on record?
Result: 0

Query: For the molecule O=C(O)COc1ncnc2cc(-c3ccc4[nH]ncc4c3)sc12 , what %Inh is on record?
Result: 3
